Assignment: determine reported protein stability index for the given variants.
B1: KLHL12 (parent)
chain: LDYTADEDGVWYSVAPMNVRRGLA

Variants of: B1
runDescription: protein stability index of a GFP-peptide fusion (GPS, HEK-293T) (PSI 1-6); higher = more stable;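 further: lentivirally expressed fusions sorted by FACS into six bins by GFP to DsRed ratio, PSI derived from sequencing read proportions per bin multiplied by bin number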
experimentalSetup: c terminus: a fixed tail appended
Format: numeric value only, no unit, no commentary.

### Prompt Report protein stability index for "W11R" please.
### Response 2.8

### Prompt Report protein stability index for "T4Y" please.
### Response 2.57

### Prompt Report protein stability index for "D2Y" please.
### Response 2.43

### Prompt Report protein stability index for "L1D" please.
### Response 3.47

### Prompt Report protein stability index for "D6R" please.
### Response 2.47

### Prompt Report protein stability index for "D8K" please.
### Response 2.24

### Prompt Report protein stability index for "L23K" please.
### Response 2

### Prompt Report protein stability index for "V19E" please.
### Response 1.86
